# maps each entry to its IC50
# target: ITK (Homo sapiens)
# Construct: purchased Signalchem I13-11G-10
# Sequence (Q08881 1-620): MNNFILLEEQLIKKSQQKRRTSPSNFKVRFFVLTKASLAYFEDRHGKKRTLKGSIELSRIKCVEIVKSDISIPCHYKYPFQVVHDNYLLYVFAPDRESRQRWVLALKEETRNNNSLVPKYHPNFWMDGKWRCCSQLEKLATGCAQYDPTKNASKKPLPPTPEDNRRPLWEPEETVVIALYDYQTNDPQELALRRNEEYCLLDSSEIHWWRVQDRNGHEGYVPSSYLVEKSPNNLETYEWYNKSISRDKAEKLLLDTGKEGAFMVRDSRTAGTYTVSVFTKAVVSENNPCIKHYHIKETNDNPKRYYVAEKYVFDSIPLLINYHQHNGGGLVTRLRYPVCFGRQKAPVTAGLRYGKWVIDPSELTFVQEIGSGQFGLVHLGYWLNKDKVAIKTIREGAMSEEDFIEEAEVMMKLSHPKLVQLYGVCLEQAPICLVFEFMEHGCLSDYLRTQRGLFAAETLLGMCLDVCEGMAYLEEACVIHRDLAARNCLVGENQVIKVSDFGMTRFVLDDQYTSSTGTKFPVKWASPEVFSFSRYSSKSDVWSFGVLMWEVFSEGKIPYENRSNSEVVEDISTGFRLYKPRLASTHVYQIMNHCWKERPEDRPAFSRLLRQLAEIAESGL
# method-description: Inhibitory activity against ITK, ADP-Glo Kinase system (Promega)
# Assay type: biochemical
# condition-description: Km ATP (ITK: 25uM); read-out: ITK IC50(nM) Km ATP

C=CC(=O)Nc1cc(-c2nc(Nc3ncc(C)s3)cc3c2ccn3C)ccc1F [Example 54] | 20 to 100 nM

Next molecule, IC50 to be filled in.
Query C=CC(=O)N1CC[C@H](Oc2nc(Nc3ncc(CC)s3)cc3c2ccn3CC(C)C)C1 [Example 122] on ITK (Homo sapiens); IC50 returned: ≤ 20 nM

* * *

# target: ITK (Homo sapiens)
# Construct: purchased Signalchem I13-11G-10
# method-description: Inhibitory activity against ITK, ADP-Glo Kinase system (Promega)
# Format: biochemical
# condition-description: Km ATP (ITK: 25uM); read-out: ITK IC50(nM) Km ATP
# maps each entry to its IC50

Solved entries:
C=CC(=O)N1CC=C(c2nc(Nc3ncc(C)s3)cc3c2ccn3C(C)C)CC1 [Example 2] | ≤ 20 nM
C=CC(=O)N1C2C=C(c3nc(Nc4ncc(C)s4)cc4c3ccn4CC(F)F)CC1CC2 (centres unmarked) [Example 34] | ≤ 20 nM

Per the records, this compound ( C=CC(=O)N1CC=C(c2nc(Nc3ncc(C)s3)cc3c2ccn3C(C)(C)C#N)CC1 [Example 22] ) has IC50 equal to ≤ 20 nM

Per the records, this compound ( C=CC(=O)Nc1c(C)ccc(-c2nc(Nc3ncc(C)s3)cc3c2ccn3C)c1C [Example 56] ) has IC50 equal to ≤ 20 nM

* * *

# target: BTK (Homo sapiens)
# Construct: purchased Signalchem B10-10H
# method-description: Inhibitory activity against BTK, ADP-Glo Kinase system (Promega)
# Type: biochemical
# condition-description: 1mM ATP; read-out: BTK IC50(nM) 1mM ATP
reported-metric: IC50

Solved entries:
C=CC(=O)N1CCC[C@H]1COc1nc(Nc2ncc(C)s2)cc2c1ccn2CC(C)C | 20 to 100 nM
C=CC(=O)N1CC=C(c2nc(Nc3ncc(C)s3)cc3c2ccn3CC(C)C)CC1 | 20 to 100 nM
C=CC(=O)N1CC(C)(Oc2nc(Nc3ncc(C)s3)cc3c2ccn3C2CCCC2)C1 | ≤ 20 nM

Next molecule, IC50 to be filled in.
Per the records, this molecule ( C=CC(=O)N1C2C=C(c3nc(Nc4ncc(C)s4)cc4c3ccn4CC3CC3)CC1CC2 (stereo not shown) ) has IC50 equal to ≤ 20 nM

* * *

# target: BTK (Homo sapiens)
# Construct: purchased Signalchem B10-10H
# method-description: Inhibitory activity against BTK, ADP-Glo Kinase system (Promega)
# Format: biochemical
# condition-description: 1mM ATP; read-out: BTK IC50(nM) 1mM ATP
reported-metric: IC50

Solved entries:
C=CC(=O)N1CC(C)(Oc2nc(Nc3ncc(C)s3)cc3c2ccn3CCOC)C1 [Example 168] | > 500 nM
C=CC(=O)N1CC[C@@H](Oc2nc(Nc3ncc(C)s3)cc3c2ccn3C(C)C)C1 [Example 162] | > 500 nM
C=CC(=O)N1C[C@H](F)[C@H](Oc2nc(Nc3ncc(C)s3)cc3c2ccn3C)C1 [Example 131] | ≤ 20 nM

Next compound, IC50 to be filled in.
Per the records, this compound ( C=CC(=O)N1CC[C@H](COc2nc(Nc3ncc(C)s3)cc3c2ccn3CC(C)C)C1 [Example 216] ) has IC50 equal to 20 to 100 nM

* * *

# maps each entry to its IC50
# target: ITK (Homo sapiens, UniProt Q08881)
# Construct: purchased Signalchem I13-11G-10
# method-description: Inhibitory activity against ITK, ADP-Glo Kinase system (Promega)
# Format: biochemical
# condition-description: 1mM ATP; read-out: ITK IC50(nM) 1mM ATP

Solved entries:
C=CC(=O)N1CC[C@H](Oc2nc(Nc3ncc(C)s3)cc3c2ccn3CC(C)(C)O)C1 [Example 140] | ≤ 20 nM
C=CC(=O)N1CC[C@H](Oc2nc(Nc3ncc(C)s3)cc3c2ccn3CCC(C)C)C1 [Example 114] | ≤ 20 nM
C=CC(=O)N1CC[C@@H]1COc1nc(Nc2ncc(C)s2)cc2c1ccn2C1CCCC1 [Example 223] | ≤ 20 nM
C=CC(=O)N1CCC[C@H]1COc1nc(Nc2ncc(C)s2)cc2c1ccn2C(C)C [Example 219] | > 500 nM
C=CC(=O)N1CCC[C@H](Oc2nc(Nc3ncc(C)s3)cc3c2ccn3CC2CC2)C1 [Example 149] | ≤ 20 nM

Per the records, this molecule ( C=CC(=O)N1CC[C@H](Oc2nc(Nc3ncc(C)s3)cc3c2ccn3C(C)C)C1 [Example 79] ) has IC50 equal to ≤ 20 nM

Per the records, this molecule ( C=CC(=O)N1CC[C@H](Oc2nc(Nc3ncc(C)s3)cc3c2ccn3CC2CCCCC2)C1 [Example 129] ) has IC50 equal to ≤ 20 nM

Per the records, this molecule ( C=CC(=O)N1C[C@@H](F)[C@H](Oc2nc(Nc3ncc(C)s3)cc3c2ccn3CC)C1 [Example 154] ) has IC50 equal to ≤ 20 nM

* * *

# target: BTK (Homo sapiens, UniProt Q06187)
# Construct: purchased Signalchem B10-10H
# Sequence (Q06187 whole entry): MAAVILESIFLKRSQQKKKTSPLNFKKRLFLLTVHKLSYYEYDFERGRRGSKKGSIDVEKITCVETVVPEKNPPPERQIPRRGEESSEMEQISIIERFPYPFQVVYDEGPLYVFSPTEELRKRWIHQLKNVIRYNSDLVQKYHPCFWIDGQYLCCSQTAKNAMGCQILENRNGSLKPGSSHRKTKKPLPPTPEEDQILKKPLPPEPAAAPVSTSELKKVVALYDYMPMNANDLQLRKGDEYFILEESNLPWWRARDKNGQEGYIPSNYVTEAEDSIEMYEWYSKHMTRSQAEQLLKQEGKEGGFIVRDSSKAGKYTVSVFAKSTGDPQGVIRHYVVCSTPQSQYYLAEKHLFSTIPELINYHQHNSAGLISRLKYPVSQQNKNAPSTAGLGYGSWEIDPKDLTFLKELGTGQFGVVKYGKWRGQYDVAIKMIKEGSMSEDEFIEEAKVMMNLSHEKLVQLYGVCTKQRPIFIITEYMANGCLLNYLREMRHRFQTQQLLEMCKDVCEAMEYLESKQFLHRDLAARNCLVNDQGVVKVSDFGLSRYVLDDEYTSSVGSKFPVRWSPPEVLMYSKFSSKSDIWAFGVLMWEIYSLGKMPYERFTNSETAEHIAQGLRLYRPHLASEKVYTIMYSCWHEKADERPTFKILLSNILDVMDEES
# method-description: Inhibitory activity against BTK, ADP-Glo Kinase system (Promega)
# Format: biochemical
# condition-description: 1mM ATP; read-out: BTK IC50(nM) 1mM ATP
reported-metric: IC50

Solved entries:
C=CC(=O)N1CCC[C@H](Oc2nc(Nc3ncc(C)s3)cc3c2ccn3CC(C)CC)C1 (stereo partly shown) | ≤ 20 nM
C=CC(=O)N1C2C=C(c3nc(Nc4ncc(C)s4)cc4c3ccn4CC(C)C)CC1CCC2 (stereo not shown) | ≤ 20 nM
C=CC(=O)N1C[C@H](F)[C@H](Oc2nc(Nc3ncc(C)s3)cc3c2ccn3CC(F)(F)F)C1 | ≤ 20 nM

Per the records, this molecule ( `C=CC(=O)N1CCC[C@@H]1COc1nc(Nc2ncc(C)s2)cc2c1ccn2CC(F)(F)F` ) has IC50 equal to ≤ 20 nM

* * *

# maps each entry to its IC50
# target: ITK (Homo sapiens)
# Construct: purchased Signalchem I13-11G-10
# method-description: Inhibitory activity against ITK, ADP-Glo Kinase system (Promega)
# Format: biochemical
# condition-description: Km ATP (ITK: 25uM); read-out: ITK IC50(nM) Km ATP

Solved entries:
C=CC(=O)N1CC(C)(Oc2nc(Nc3ncc(C)s3)cc3c2ccn3CC(C)C)C1 [Example 119] | ≤ 20 nM
C=CC(=O)N1CC=C(c2nc(Nc3ncc(C)s3)cc3c2ccn3CC2CCOC2)CC1 (stereo not drawn) [Example 8] | ≤ 20 nM
C=CC(=O)Nc1ccc(F)c(-c2nc(Nc3ncc(C)s3)cc3c2ccn3CC2CCOC2)c1 (stereo not drawn) [Example 71] | ≤ 20 nM
C=CC(=O)Nc1cc(-c2nc(Nc3ncc(C)s3)cc3c2ccn3CC2CC2)ccc1C [Example 65] | 20 to 100 nM

Per the records, this compound ( C=CC(=O)N1CC=C(c2nc(Nc3ncc(C)s3)cc3c2ccn3[C@@H](C)CC)CC1 [Example 13] ) has IC50 equal to ≤ 20 nM

Per the records, this compound ( C=CC(=O)Nc1cc(-c2nc(Nc3ncc(C)s3)cc3c2ccn3CC2CC2)ccc1F [Example 64] ) has IC50 equal to ≤ 20 nM

Per the records, this compound ( C=CC(=O)Nc1ccc(F)c(-c2nc(Nc3ncc(C)s3)cc3c2ccn3CC2CC2)c1 [Example 61] ) has IC50 equal to ≤ 20 nM

Per the records, this compound ( C=CC(=O)N1CC=C(c2nc(Nc3ncc(C)s3)cc3c2ccn3CC2CC2)CC1 [Example 4] ) has IC50 equal to ≤ 20 nM

Per the records, this compound ( C=CC(=O)N1CC=C(c2nc(Nc3ncc(C)s3)cc3c2ccn3Cc2ccccc2)CC1 [Example 15] ) has IC50 equal to ≤ 20 nM

Per the records, this compound ( C=CC(=O)N1C[C@@H](F)[C@H](Oc2nc(Nc3ncc(C)s3)cc3c2ccn3CC2(C(F)(F)F)CC2)C1 [Example 120] ) has IC50 equal to ≤ 20 nM

Per the records, this compound ( C=CC(=O)Nc1cc(-c2nc(Nc3ncc(C)s3)cc3c2ccn3C)ccc1C [Example 55] ) has IC50 equal to ≤ 20 nM

Per the records, this compound ( C=CC(=O)N1CC=C(c2nc(Nc3ncc(C)s3)cc3c2ccn3CC2CCCC2)CC1 [Example 10] ) has IC50 equal to 20 to 100 nM
